# protocol.summary: chemical genetic growth profiling, strain panel (AID 1159580);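 note: tested at 20 µM; growth read once vehicle control cultures reached saturation at 30 °C; 1 = growth at the plate median or of vehicle wells; lower values mean less growth of the strain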
# condition.label: S. cerevisiae deletion strains, growth OD, locus YGR229C, strain SMI1, active compounds read low
Hit rate of the full screen: of about 5,500 compounds, about 2,000 (36%) were called active. Another 18% or so got no clear call; they are omitted. Some of the results follow.
normalized growth: recorded values
Could you keep your reply to the number by itself?

See these solved cases before continuing.
[
  {
    "compound": "COC(=O)C[C@H]1C(C)(C)[C@H](O)[C@@H]2CC3=C4CC(O)O[C@@H](c5ccoc5)[C@]4(C)CCC3[C@@]1(C)C2=O (stereo not given in full)",
    "normalized growth": 1.02
  },
  {
    "compound": "Cc1ccc(O)c(C(CCN(C(C)C)C(C)C)c2ccccc2)c1 (stereo not given)",
    "normalized growth": 0.995
  },
  {
    "compound": "CC(C)[C@@H]1CC[C@@H](C)CC1=O",
    "normalized growth": 1.05
  }
]

Q: Entry `O=c1c(O)c(-c2ccccc2)oc2ccccc12` : reported normalized growth = ?
Result: 0.998

Q: Please do the same for C[N+]12CCC(CC1)C(OC(=O)C(O)(c1ccccc1)c1ccccc1)C2 (stereo not given) as well.
Result: 1
